FYI, the data here is from a melting point compilation (Tetko et al.; mined from patent text by program, amines drawn as free bases though some values may be those of a salt).

Reported melting point by item:

Previously resolved entries follow.
compound: FN(F)CC1(CN(F)F)COC1
assay.value: 43.5 to 44.5 °C

compound: O=C1C2CCCC2=Nc2ccccc2N1Cc1ccc([N+](=O)[O-])cc1 (centres undefined)
assay.value: 185 to 188 °C

compound: CC(C)(C(=O)Nc1cc(Cl)cc(Cl)c1)N1COC(C#N)=C(c2ccccc2)C1=O
assay.value: 132 to 135 °C

compound: CCc1ccc2c(c1)C=Cc1cc(C)ccc1C2c1cn(-c2ccnc(N3CCCC3C(=O)O)n2)c(=O)[nH]c1=S (centres undefined)
assay.value: 175 °C

compound: O=C(O)c1cn(OCC2CN(Cc3ccccc3)CCN2Cc2ccccc2)c2cc(F)c(F)cc2c1=O (centres undefined)
assay.value: 158 to 159 °C

Inquiry: Consider the compound shown here: Cc1nc(NC(=O)Nc2ccccc2)n(C)c(=O)c1CCN1CCN(c2noc3ccccc23)CC1 What is its recorded melting point?
Reply text: 216 °C

Inquiry: # iterate: N#CSCSc1nc(Cl)c(Cl)nc1Cl
Reply text: 90 to 93 °C

Inquiry: Thanks! And CC(=O)OC1C(=O)N(c2nnc(C(C)(C)C)s2)C(=O)N1C (centres undefined) ?
Reply text: 168 °C

Inquiry: Please do the same for O=S1(=O)N=CN(C2CC2)c2cc(Br)cc(C(F)(F)F)c21 as well.
Reply text: 253 to 254 °C
